test-method-notes: in vivo
cond: rat, po, 10 mg/kg
Listing of recorded AUC(0-t) by entry.
assay-readout: AUC(0-t) (µg·h/mL)

{"compound": "O=c1nc(Nc2cc3cn(CCO)nc3cc2Cl)n(Cc2cc(F)c(F)cc2F)c(=O)n1-c1cncc(Cl)c1 [Compound 4]", "assay-readout": "AUC(0-t)", "result": 10.8}
{"compound": "[2H]C([2H])([2H])n1cc2cc(Nc3nc(=O)n(-c4cncc(Cl)c4)c(=O)n3Cc3cc(F)c(F)cc3F)c(Cl)cc2n1 [Compound 5]", "assay-readout": "AUC(0-t)", "result": 224}
{"compound": "[2H]C([2H])([2H])n1cc2cc(Nc3nc(=O)n(-c4cncc(Cl)c4)c(=O)n3Cc3cc(F)c(F)cc3F)c(Br)cc2n1 [Compound 6]", "assay-readout": "AUC(0-t)", "result": 205}
